The following are reported GI50 results, target or system NCI-H460 lung.

Look over these answered cases.
Cc1ccc(-n2c3c(c4c(CN)c(O)ccc42)CCc2ccccc2C3=O)cc1; 7.33 µM
COc1ccc(C(=O)c2cc(C)c(OC)c(C)c2)c(OC)c1N(C(=O)CCl)C(=O)CCl; 0.0386 µM
COC(=O)CCCNC(=O)C(=O)c1c(O)c(O)c(C(C)C)c2cc(C)c(-c3c(C)cc4c(C(C)C)c(O)c(O)c(C(=O)C(=O)NCCCC(=O)OC)c4c3O)c(O)c12; 0.345 µM
C=C1C(=O)O[C@H]2[C@H]1CC/C(Cn1cc(-c3ccsc3)nn1)=C\CC[C@@]1(C)O[C@@H]21; 4.71 µM
N#Cc1ccc(NC(=O)Nc2nc3ccc(OC(F)(F)F)cc3s2)cc1; 0.605 µM

# return GI50 for `Cc1nc2ccccc2c(/C=C/c2ccccc2)c1C(=O)/C=C/c1ccccc1` , test system: NCI-H460 lung
1.88 µM

# return GI50 for `O=S(=O)(NCCNc1cc(-c2cn(-c3ccccc3)nc2-c2cccc(O)c2)ccn1)c1ccc(Br)cc1` , test system: NCI-H460 lung
2.39 µM

# return GI50 for `COc1c(Cl)[c]([Hg][O]C(C)=O)c(NCC(C)=O)c(OC)[c]1[Hg][O]C(C)=O` , test system: NCI-H460 lung
33.2 µM

The measured values listed here are drawn from PubChem BioAssay (NCI).
